Values were extracted from ChEMBL document CHEMBL1145576.

Each entry below carries its reported IC50.
target: Inhibitor of nuclear factor kappa-B kinase subunit alpha (Homo sapiens); experiment: Inhibition of IKK1
Give just the numeric value; nM need not be written.

Study these solved cases before continuing.
INSERT INTO assay_data (molecule, obsvalue) VALUES
  ('O=S(=O)(c1ccc(-c2ccnc(Nc3ccc4ncsc4c3)n2)cc1)N1CCOCC1', 6700),
  ('NCCC(=O)Nc1ccc(-c2ccnc(Nc3ccc4ncsc4c3)n2)cc1', 731);

Returns the measured IC50 for the input molecule. Input: `O=S(=O)(Nc1ccc(-c2ccnc(Nc3ccc4ncsc4c3)n2)cc1)c1ccc(Cl)cc1`
2990

Cool, now `O=S(=O)(Nc1ccc(-c2ccnc(Nc3ccc4ncsc4c3)n2)cc1)c1ccc2nonc2c1`
4840

Cool, now `COc1cccc2nc(-c3cccs3)nc(NN3C(=O)C=C(C)C3=O)c12`
13000

Cool, now `O=S(=O)(c1ccc(-c2ccnc(Nc3ccc4ncsc4c3)n2)cc1)N1CCSCC1`
5000

Cool, now `CN1CCN(c2ccc(-c3ccnc(Nc4ccc5ncsc5c4)n3)cc2)CC1`
2630

Cool, now O=C(Nc1ccc(-c2ccnc(Nc3ccc4ncsc4c3)n2)cc1)C1CCCN1 (stereo not given)
146

Cool, now `O=C(Nc1ccc(-c2ccnc(Nc3ccc4ncsc4c3)n2)cc1)C1CCNCC1`
1910

Cool, now `O=S(=O)(c1ccc(-c2ccnc(Nc3ccc4ncsc4c3)n2)cc1)N1CCNCC1`
850

====

experiment: Selectivity ratio of IC50 for IKK1 to IC50 for IKK2
measuredMetric: Ratio IC50
Write the value as a bare number.

INSERT INTO assay_data (molecule, obsvalue) VALUES
  ('O=S(=O)(c1ccc(-c2ccnc(Nc3ccc4ncsc4c3)n2)cc1)N1CCNCC1', 13),
  ('NCCC(=O)Nc1ccc(-c2ccnc(Nc3ccc4ncsc4c3)n2)cc1', 3),
  ('O=S(=O)(Nc1ccc(-c2ccnc(Nc3ccc4ncsc4c3)n2)cc1)c1ccc2nonc2c1', 21),
  ('O=S(=O)(Nc1ccc(-c2ccnc(Nc3ccc4ncsc4c3)n2)cc1)c1ccc(Cl)cc1', 3),
  ('O=C(Nc1ccc(-c2ccnc(Nc3ccc4ncsc4c3)n2)cc1)C1CCCN1 (stereo unspecified)', 1);

Let us examine a further case.
Returns the measured Ratio IC50 for the input molecule. Input: `CN1CCN(c2ccc(-c3ccnc(Nc4ccc5ncsc5c4)n3)cc2)CC1`
6

====

test system: A549; assay: Inhibition of TNF-alpha-stimulated E-selectin promoter transfected human A549 cells after 6 hrs; type: functional, cell-based; conditions: A549, 6 h
measuredMetric: pIC50
Note on units: pIC50 is unitless, being -log10 of a concentration expressed in mol/L.

INSERT INTO assay_data (smi, studytarget, obsvalue) VALUES
  ('O=S(=O)(c1ccc(-c2ccnc(Nc3ccc4ncsc4c3)n2)cc1)N1CCOCC1', 'A549', 5.74),
  ('O=S(=O)(Nc1ccc(-c2ccnc(Nc3ccc4ncsc4c3)n2)cc1)c1ccc2nonc2c1', 'A549', 4.75);

Returns the measured pIC50 for the input compound. Input: `O=C(Nc1ccc(-c2ccnc(Nc3ccc4ncsc4c3)n2)cc1)C1CCNCC1`
5.42

Cool, now `O=S(=O)(c1ccc(-c2ccnc(Nc3ccc4ncsc4c3)n2)cc1)N1CCCCC1`
5.68

Cool, now `CN(C)S(=O)(=O)c1ccc(-c2ccnc(Nc3ccc4ncsc4c3)n2)cc1`
5.72

Cool, now `CN1CCN(c2ccc(-c3ccnc(Nc4ccc5ncsc5c4)n3)cc2)CC1`
5.90

Cool, now `O=S(=O)(c1ccc(-c2ccnc(Nc3ccc4ncsc4c3)n2)cc1)N1CCCC1`
5.82

Cool, now `O=S(=O)(c1ccc(-c2ccnc(Nc3ccc4ncsc4c3)n2)cc1)N1CCNCC1`
5.24

Cool, now `O=S(=O)(c1ccc(-c2ccnc(Nc3ccc4ncsc4c3)n2)cc1)N1CCSCC1`
6.54

====

target: Inhibitor of nuclear factor kappa-B kinase subunit beta (Homo sapiens, UniProt O14920); assay: Inhibition of IKK2
Sequence (O14920 whole entry): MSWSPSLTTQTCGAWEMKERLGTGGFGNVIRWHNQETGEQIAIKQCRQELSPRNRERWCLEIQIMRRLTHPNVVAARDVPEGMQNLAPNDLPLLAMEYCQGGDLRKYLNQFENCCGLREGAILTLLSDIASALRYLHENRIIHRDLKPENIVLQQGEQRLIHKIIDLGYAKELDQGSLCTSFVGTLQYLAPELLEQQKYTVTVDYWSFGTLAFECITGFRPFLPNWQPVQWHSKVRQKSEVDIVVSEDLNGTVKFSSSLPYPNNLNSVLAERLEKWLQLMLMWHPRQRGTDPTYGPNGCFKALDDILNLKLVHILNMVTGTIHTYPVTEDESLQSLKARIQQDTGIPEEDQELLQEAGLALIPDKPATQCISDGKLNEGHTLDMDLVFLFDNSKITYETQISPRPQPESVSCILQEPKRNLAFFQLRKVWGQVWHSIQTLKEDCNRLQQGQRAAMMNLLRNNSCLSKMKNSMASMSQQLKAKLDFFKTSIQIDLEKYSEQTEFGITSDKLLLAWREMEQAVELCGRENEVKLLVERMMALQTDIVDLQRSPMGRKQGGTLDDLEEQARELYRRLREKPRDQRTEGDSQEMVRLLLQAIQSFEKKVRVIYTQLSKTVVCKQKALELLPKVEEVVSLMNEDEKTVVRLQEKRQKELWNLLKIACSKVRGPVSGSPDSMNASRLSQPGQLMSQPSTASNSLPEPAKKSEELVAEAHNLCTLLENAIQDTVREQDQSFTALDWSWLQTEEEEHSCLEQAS
measuredMetric: log10 of IC50 (log10 of the value in nM)
Units before log transform: nM; reported quantity: IC50; transform: log10.

INSERT INTO results (smi, obsvalue) VALUES
  ('CN(CCOc1ccc(-c2ccnc(Nc3ccc4ncsc4c3)n2)cc1)c1ccccn1', 3.60),
  ('O=S(=O)(Nc1ccc(-c2ccnc(Nc3ccc4ncsc4c3)n2)cc1)c1ccc2nonc2c1', 2.36);

Returns the measured log10 of IC50 for the input molecule. Input: `O=S(=O)(c1ccc(-c2ccnc(Nc3ccc4ncsc4c3)n2)cc1)N1CCNCC1`
1.81

Cool, now `c1cn(-c2ccc(-c3ccnc(Nc4ccc5ncsc5c4)n3)cc2)cn1`
2.85

Cool, now `O=c1ccn(-c2ccc(-c3ccnc(Nc4ccc5ncsc5c4)n3)cc2)cc1`
3.40

====

Target: Inhibitor of nuclear factor kappa-B kinase subunit alpha (Homo sapiens) (UniProt O15111)
Sequence (whole entry): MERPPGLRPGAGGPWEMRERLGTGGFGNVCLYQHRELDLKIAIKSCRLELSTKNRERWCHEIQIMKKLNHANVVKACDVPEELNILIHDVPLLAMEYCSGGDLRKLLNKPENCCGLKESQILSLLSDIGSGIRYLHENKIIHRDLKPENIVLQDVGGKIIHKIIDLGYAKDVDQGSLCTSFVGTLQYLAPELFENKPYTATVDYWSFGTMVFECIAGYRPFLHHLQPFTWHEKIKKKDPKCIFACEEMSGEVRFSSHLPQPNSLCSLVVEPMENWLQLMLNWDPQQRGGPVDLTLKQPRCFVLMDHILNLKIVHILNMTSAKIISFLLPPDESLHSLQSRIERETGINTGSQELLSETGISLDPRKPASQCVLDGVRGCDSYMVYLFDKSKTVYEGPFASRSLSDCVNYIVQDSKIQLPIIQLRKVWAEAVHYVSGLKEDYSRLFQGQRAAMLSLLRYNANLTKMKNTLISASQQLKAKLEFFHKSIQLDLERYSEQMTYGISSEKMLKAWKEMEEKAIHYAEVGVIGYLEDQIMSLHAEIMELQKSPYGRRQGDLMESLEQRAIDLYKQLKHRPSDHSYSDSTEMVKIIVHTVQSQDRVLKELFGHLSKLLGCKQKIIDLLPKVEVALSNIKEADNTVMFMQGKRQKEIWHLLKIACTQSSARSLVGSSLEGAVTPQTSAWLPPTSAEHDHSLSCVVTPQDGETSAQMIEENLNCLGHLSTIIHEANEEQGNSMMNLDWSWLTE
Assay: Inhibition of IKK1 at 10 uM
Each entry below carries its reported inhibition.
Give just the numeric value; % need not be written.

Study these solved cases before continuing.
INSERT INTO assay_data (smi, measuredmetric, obsvalue) VALUES
  ('O=S(=O)(c1ccc(-c2ccnc(Nc3ccc4ncsc4c3)n2)cc1)N1CCCCC1', 'inhibition', 30),
  ('c1cn(-c2ccc(-c3ccnc(Nc4ccc5ncsc5c4)n3)cc2)cn1', 'inhibition', 34),
  ('O=S(=O)(c1ccccc1)c1ccc(-c2ccnc(Nc3ccc4ncsc4c3)n2)cc1', 'inhibition', 24);

Inhibitor of nuclear factor kappa-B kinase subunit alpha (Homo sapiens) (UniProt O15111) / inhibition / `CN(C)S(=O)(=O)c1ccc(-c2ccnc(Nc3ccc4ncsc4c3)n2)cc1` : value?
28

Cool, now `O=S(=O)(c1ccc(-c2ccnc(Nc3ccc4ncsc4c3)n2)cc1)N1CCCC1`
48

Cool, now `O=c1ccn(-c2ccc(-c3ccnc(Nc4ccc5ncsc5c4)n3)cc2)cc1`
14

====

Each entry below carries its reported IC50.
molecular target: Inhibitor of nuclear factor kappa-B kinase subunit beta (Homo sapiens, UniProt O14920); assay: Inhibition of IKK2
Note to self: number, then unit, no commentary.

Study these solved cases before continuing.
INSERT INTO assay_data (smi, studytarget, obsvalue) VALUES
  ('O=S(=O)(c1ccccc1)c1ccc(-c2ccnc(Nc3ccc4ncsc4c3)n2)cc1', 'Inhibitor of nuclear factor kappa-B kinase subunit beta (Homo sapiens, UniProt O14920)', '0.44 µM'),
  ('CN(C)S(=O)(=O)c1ccc(-c2ccnc(Nc3ccc4ncsc4c3)n2)cc1', 'Inhibitor of nuclear factor kappa-B kinase subunit beta (Homo sapiens, UniProt O14920)', '0.41 µM'),
  ('c1cnc(Oc2ccc(-c3ccnc(Nc4ccc5ncsc5c4)n3)cc2)nc1', 'Inhibitor of nuclear factor kappa-B kinase subunit beta (Homo sapiens, UniProt O14920)', '3.6 µM'),
  ('O=S(=O)(Nc1ccc(-c2ccnc(Nc3ccc4ncsc4c3)n2)cc1)c1ccc(Cl)cc1', 'Inhibitor of nuclear factor kappa-B kinase subunit beta (Homo sapiens, UniProt O14920)', '0.99 µM'),
  ('CN1CCN(c2ccc(-c3ccnc(Nc4ccc5ncsc5c4)n3)cc2)CC1', 'Inhibitor of nuclear factor kappa-B kinase subunit beta (Homo sapiens, UniProt O14920)', '0.41 µM');

Returns the measured IC50 for the input compound. Input: `COc1ccc(S(=O)(=O)Nc2ccc(-c3ccnc(Nc4ccc5ncsc5c4)n3)cc2)cc1`
8.9 µM

====

Each entry below carries its reported Ratio IC50.
test: Selectivity ratio of IC50 for IKK1 to IC50 for IKK2

Study these solved cases before continuing.
INSERT INTO measurements (smi, obsvalue) VALUES
  ('O=c1ccn(-c2ccc(-c3ccnc(Nc4ccc5ncsc5c4)n3)cc2)cc1', '> 4'),
  ('c1cn(-c2ccc(-c3ccnc(Nc4ccc5ncsc5c4)n3)cc2)cn1', '> 14'),
  ('O=S(=O)(c1ccc(-c2ccnc(Nc3ccc4ncsc4c3)n2)cc1)N1CCCCC1', '> 17'),
  ('CN(C)S(=O)(=O)c1ccc(-c2ccnc(Nc3ccc4ncsc4c3)n2)cc1', '> 24');

Returns the measured Ratio IC50 for the input compound. Input: `O=S(=O)(c1ccccc1)c1ccc(-c2ccnc(Nc3ccc4ncsc4c3)n2)cc1`
> 22
